system: C6 astrocyte cell line; test: C6 oxidative stress assay (serum withdrawal, DCF); conditions: minimum dose at which toxicity was observed
Where a name gives a salt, the structure may show the parent alone.
Property: C6 oxidative stress assay Toxic dose

// worked examples, C6 oxidative stress assay Toxic dose included
Compound | C6 oxidative stress assay Toxic dose
Cc1cc(O)c(C)c(O)c1C(=O)O [3-Methylorsellinic acid] | none
CC(C)N(C(=O)CCl)c1ccccc1 [Propachlor] | 10 µM
O=C1C=C2C=C[C@@H]3C[C@@]2(O1)[C@H]1CCCCN31 [Securinine] | None
CC1=CC(=O)C(C(C)C)=CC1=O [Thymoquinone] | None
CC(=O)Oc1ccc(O)cc1 [4-Acetoxyphenol] | none
O=C(/C=C/c1ccc(O)cc1)c1ccc(O)cc1O [Isoliquiritigenin] | none
C=CC(C1=CC(=O)C(OC)=CC1=O)c1ccccc1 (stereo not shown) [4-Methoxydalbergione] | none
CC(=O)O[C@@H]1C[C@H]2C(C)(C)C(=O)C=C[C@]2(C)[C@H]2CC[C@]3(C)C(=CC(=O)O[C@H]3c3ccoc3)[C@@]21C [Deoxygedunin] | none

Give C6 oxidative stress assay Toxic dose for O=c1c2ccccc2[se]n1-c1ccccc1 [Ebselen, reference compound] tested on C6 astrocyte cell line.
none

Recall the reported C6 oxidative stress assay Toxic dose of COc1cc(O)cc(OC)c1OC [Antiarol] on C6 astrocyte cell line and write it down.
10 µM

Retrieve C6 oxidative stress assay Toxic dose on C6 astrocyte cell line; query ClC1=C(Cl)C2(Cl)C3C(Cl)C(Cl)CC3C1(Cl)C2(Cl)Cl (stereo not shown) [Chlordane]
none

Return reported C6 oxidative stress assay Toxic dose for target or system C6 astrocyte cell line, item C=C1C(=O)O[C@H]2[C@H]1CC/C(C)=C/CC[C@@]1(C)O[C@@H]21 [Parthenolide] .
None

# lookup: C6 astrocyte cell line C6 oxidative stress assay Toxic dose, key = CC(COc1ccccc1)NC(C)C(O)c1ccc(O)cc1 (stereo not shown) [Isoxsuprine hydrochloride, reference compound]
none

Name the value of C6 oxidative stress assay Toxic dose reported for COc1ccc(/C=C/C(=O)c2ccccc2)cc1 [4-Methoxychalcone] when tested on C6 astrocyte cell line.
None

Fill in C6 oxidative stress assay Toxic dose for CC(=O)O[C@H]1CCC2(C)C3=C(CCC2C1(C)C)[C@@]1(C)CC[C@@H](C(C)CCC=C(C)C)[C@]1(C)CC3 (stereo partly shown) [Euphol acetate] tested with C6 astrocyte cell line.
none

State the measured C6 oxidative stress assay Toxic dose (C6 astrocyte cell line) of OC[C@H]1O[C@@H](n2cnc3c(NCc4ccco4)ncnc32)[C@H](O)[C@@H]1O [Kinetin riboside]
10 µM

Return reported C6 oxidative stress assay Toxic dose for target or system C6 astrocyte cell line, item Cc1[nH]c2ccccc2c1CN(C)C [2-Methyl gramine] .
none

Lab note: record C6 oxidative stress assay Toxic dose of COc1cc(O)c(C)c(O)c1 [2,6-Dihydroxy-4-methoxytoluene] tested on C6 astrocyte cell line.
10 µM

Write C6 oxidative stress assay Toxic dose of COc1cccc(O)c1O [3-Methoxycatechol] ; system used: C6 astrocyte cell line
10 µM

* * *

system: NSC34 cells; assay: NSC34 oxidative stress assay (serum withdrawal, DCF); conditions: Mus musculus, NSC-34, 24 h, read-out: NSC34 oxidative stress assay Max reduction
Where a name gives a salt, the structure may show the parent alone.
Each item that follows carries a reported Emax.
Response body: numeric value in %, unit text excluded.

Worked examples follow.
Compound | Property | Units Label | Assay Value
CCc1cccc(CC)c1N(COC)C(=O)CCl | Emax | % | 0
ClC1=C(Cl)C2(Cl)C3C(Cl)C(Cl)CC3C1(Cl)C2(Cl)Cl (stereo not drawn) | Emax | % | 0

Determine from records and report Emax for O=C(CCBr)N1CCN(C(=O)CCBr)CC1 [Pipobroman, reference compound]
30

Determine its reported Emax: O=C(/C=C/c1ccc(O)cc1)c1ccc(O)cc1O
-6

Query Emax for CN1CCc2cccc3c2[C@H]1Cc1ccc(O)c(O)c1-3 [Apomorphine hydrochloride, reference compound]
25

Consider the compound C=CC(C1=CC(=O)C(OC)=CC1=O)c1ccccc1 (stereo not drawn) and give its recorded Emax.
-44

Hello, please tell me recorded Emax for this one: C=CC(C1=CC(=O)C=CC1=O)c1ccccc1 (stereo not drawn)
0

Fill in reported Emax for this entry: COc1cc(O)c(C)c(O)c1 [2,6-Dihydroxy-4-methoxytoluene]
28

State its Emax for this compound: COc1cccc(O)c1O
-13

* * *

tested on: Nrf2-ARE pathway; assay: ARE reporter assay in CHO 4xARE-TK-GFP cells (Spectrum library hits); conditions: Cricetulus griseus
Consider the following partition of reported EC50 into named classes: bin 0: < 3 µM; bin 1: ≥ 3 µM and < 10 µM; bin 2: ≥ 10 µM

Take a look at these entries with their results.
Compound | Target Entity | Category
COc1cc(O)c(C)c(O)c1 [2,6-Dihydroxy-4-methoxytoluene] | Nrf2-ARE pathway | bin 2
O=C1C=C2C=C[C@@H]3C[C@@]2(O1)[C@H]1CCCCN31 [Securinine] | Nrf2-ARE pathway | bin 0
CC1(C)C(=O)C=C[C@]2(C)[C@H]3CC[C@@]4(C)[C@H](c5ccoc5)OC(=O)[C@H]5O[C@]54[C@]3(C)[C@H](O)C[C@@H]12 [Deacetylgedunin] | Nrf2-ARE pathway | bin 1
CC(C)N(C(=O)CCl)c1ccccc1 [Propachlor] | Nrf2-ARE pathway | bin 0
O=C(/C=C/c1ccc(O)cc1)c1ccc(O)cc1O [Isoliquiritigenin] | Nrf2-ARE pathway | bin 0
CC(=O)CCC(=O)O [Levulinic acid] | Nrf2-ARE pathway | bin 2
COC(=O)[C@H](O)[C@H]1C(C)(C)[C@H](OC(C)=O)[C@@H]2CC3=C4CC(=O)O[C@@H](c5ccoc5)[C@]4(C)CC[C@@H]3[C@@]1(C)C2=O [Swietenolide 3 acetate] | Nrf2-ARE pathway | bin 1
COc1ccc(/C=C/C(=O)c2ccccc2)cc1 [4-Methoxychalcone] | Nrf2-ARE pathway | bin 2

Band for the recorded EC50 of C=C1C(=O)O[C@H]2[C@H]1CC/C(C)=C/CC[C@@]1(C)O[C@@H]21 [Parthenolide] ?
bin 2

Please report the category associated with C=CC(C1=CC(=O)C=CC1=O)c1ccccc1 (centres unmarked) [Dalbergione] , nothing else.
bin 0

Which band does CC1=C2C(=CO[C@H](C)[C@H]2C)C(O)=C(C(=O)O)C1=O [Citrinin] fall in?
bin 1

In plain terms, what class is C=C(C)C1(O)OC(=O)C=C1OC (centres unmarked) [Penicillic acid] ?
bin 2

Dear colleague, I would appreciate it if you could identify the bin for C=C(CC)C(=O)c1ccc(OCC(=O)O)c(Cl)c1Cl [Ethacrynic acid, reference compound] and reply at your convenience.
bin 2

Determine which band this compound sits in: O=c1c2ccccc2[se]n1-c1ccccc1 [Ebselen, reference compound]
bin 1

Sort into band: S=C=NCc1ccccc1 [Benzyl isothiocyanate]
bin 2

Entry C=C1CC[C@@H]2[C@](C)(CO)[C@H](O)CC[C@@]2(C)[C@@H]1C/C=C1/C(=O)OC[C@H]1O [Andrographolide] belongs to which category?
bin 0

Which class holds ClC1=C(Cl)C2(Cl)C3C(Cl)C(Cl)CC3C1(Cl)C2(Cl)Cl (centres unmarked) [Chlordane] ?
bin 1

Please classify: COc1ccc2c(c1)OC/C(=C/c1ccc(OC)c(OC)c1)C2=O [Sappanone A trimethyl ether]
bin 1

* * *

test system: 1321N1 astrocyte cell line; test: 1321N1 oxidative stress assay (serum withdrawal, DCF); conditions: minimum dose at which toxicity was observed
Where a name gives a salt, the structure may show the parent alone.
Property: 1321N1 oxidative stress assay Toxic dose

Molecule | Assay Value
CC(COc1ccccc1)NC(C)C(O)c1ccc(O)cc1 (stereo not drawn) [Isoxsuprine hydrochloride, reference compound] | none
OC[C@H]1O[C@@H](n2cnc3c(NCc4ccco4)ncnc32)[C@H](O)[C@@H]1O [Kinetin riboside] | 3 µM
COc1cc(O)cc(OC)c1OC [Antiarol] | none
CN1CCc2cccc3c2[C@H]1Cc1ccc(O)c(O)c1-3 [Apomorphine hydrochloride, reference compound] | None
CC1(C)C2CC(=O)O[C@@]3(C)C4=CC(=O)O[C@@H](c5ccoc5)[C@]4(C)CCC3[C@@]2(C)C=C[C@H]1O (stereo partly drawn) | None

Supply 1321N1 oxidative stress assay Toxic dose value. Item: CC1=CC(=O)C(C(C)C)=CC1=O
None

Item O=C1C=C2C=C[C@@H]3C[C@@]2(O1)[C@H]1CCCCN31 : provide 1321N1 oxidative stress assay Toxic dose
None

Tell me measured 1321N1 oxidative stress assay Toxic dose for CCc1cccc(CC)c1N(COC)C(=O)CCl please.
none

Answer with reported 1321N1 oxidative stress assay Toxic dose of C=CC(C1=CC(=O)C(OC)=CC1=O)c1ccccc1 (stereo not drawn)
none

Respond only with 1321N1 oxidative stress assay Toxic dose recorded for O=c1c2ccccc2[se]n1-c1ccccc1 [Ebselen, reference compound]
none

Retrieve 1321N1 oxidative stress assay Toxic dose measured for C=C1C(=O)O[C@H]2[C@H]1CC/C(C)=C/CC[C@@]1(C)O[C@@H]21 [Parthenolide] and print it.
None
